Assay target: DLK (Homo sapiens)
Construct: 10 nM DLK, catalytic domain, Carna Biosiences; purchased Carna Biosciences ('Carna Biosiences' [sic])
Sequence (Q12852 125-366 limits assumed): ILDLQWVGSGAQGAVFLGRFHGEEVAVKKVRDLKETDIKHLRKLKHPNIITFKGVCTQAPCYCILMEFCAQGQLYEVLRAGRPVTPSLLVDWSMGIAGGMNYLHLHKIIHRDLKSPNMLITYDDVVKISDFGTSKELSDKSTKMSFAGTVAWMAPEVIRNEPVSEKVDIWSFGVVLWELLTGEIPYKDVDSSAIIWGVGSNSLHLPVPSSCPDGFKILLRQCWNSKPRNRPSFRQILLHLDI
Protocol details: DLK biochemical assay (TR-FRET, MKK7 phosphorylation)
Assay setup: DLK catalytic domain, MKK7 substrate, 60 μM ATP
Measurement type: IC50 (nM)

Here is how some molecules turned out for IC50.
[
  {
    "Molecule": "CCC(c1ccc(C(F)F)nc1)n1cc(-c2cc(C(=O)N[C@@H](C)CC)c3nc(N)nn3c2)cn1 (single isomer, unassigned) [Example I-66]",
    "Scale unit": "nM",
    "IC50": 0.8
  },
  {
    "Molecule": "CC[C@H](C)NC(=O)c1cc(-c2cnn([C@H](c3ccc(C(F)(F)F)nc3)C(C)C)c2)cc2nc(N)nn12 (single isomer, unassigned)",
    "Scale unit": "nM",
    "IC50": 1
  },
  {
    "Molecule": "CC[C@H](C)NC(=O)c1cc(-c2cnn(C3CCC(F)(F)CC3)c2)cn2nc(N)nc12",
    "Scale unit": "nM",
    "IC50": 66
  }
]

A. CC[C@H](C)NC(=O)c1cc(-c2cnn(C3CCOc4ccccc43)c2)cc2nc(N)nn12 (mixture of isomers) [Example I-16]
B. CC[C@H](C)NC(=O)c1cc(-c2cnn(C(c3ccc(OCC(F)(F)F)nc3)C(C)C)c2)cn2nc(N)nc12 (mixture of isomers) [Example I-88]
Name the one with the greater IC50 value, either A or B as given. Mark your answer with the label of the selected entry.
A
(A: 22 nM, B: 7.5 nM)

* * *

Assay target: LZK (Homo sapiens, UniProt O43283)
Construct: 10 nM LZK, catalytic domain, Carna Biosiences in assay buffer; purchased Carna Biosciences ('Carna Biosiences' [sic])
Sequence (O43283 168-409 limits assumed): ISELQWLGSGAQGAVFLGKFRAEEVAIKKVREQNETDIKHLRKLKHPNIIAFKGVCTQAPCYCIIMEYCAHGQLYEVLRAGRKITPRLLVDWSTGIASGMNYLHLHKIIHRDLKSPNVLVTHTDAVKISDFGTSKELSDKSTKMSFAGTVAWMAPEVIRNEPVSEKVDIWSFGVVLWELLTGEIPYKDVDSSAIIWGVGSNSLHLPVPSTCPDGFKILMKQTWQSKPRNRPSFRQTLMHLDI
Protocol details: LZK biochemical assay (TR-FRET, MKK7 phosphorylation)
pIC50: −log10 of the molar value.
Measurement type: pIC50

[
  {
    "Compound": "CC(C)C(c1ccc(C(F)(F)F)nc1)n1cc(-c2cc(-c3ccc(OC4CC4)nc3)n3nc(N)nc3c2)cn1 (racemic)",
    "Assay target": "LZK (Homo sapiens, UniProt O43283)",
    "pIC50": 7.96
  },
  {
    "Compound": "CS(=O)(=O)c1cccc(-c2cc(-c3cnn(C(c4ccc(C(F)(F)F)nc4)C4CCOCC4)c3)cn3nc(N)nc23)c1 (racemic) [II-13]",
    "Assay target": "LZK (Homo sapiens, UniProt O43283)",
    "pIC50": 8.74
  },
  {
    "Compound": "CCC(c1ccc(OC(F)(F)F)nc1)n1cc(-c2cc(-c3cnn(CC(F)(F)F)c3)n3nc(N)nc3c2)cn1 (racemic) [II-114]",
    "Assay target": "LZK (Homo sapiens, UniProt O43283)",
    "pIC50": 7.38
  }
]

P. C[C@@H](CO)c1nnc(-c2cc(-c3cnn(Cc4cccc5cn[nH]c45)c3)cn3nc(N)nc23)s1
Q. CC[C@@H](c1ccc(C(F)(F)F)nc1)n1cc(-c2cc(-c3cnn(CC(F)(F)F)c3)c3nc(N)nn3c2)cn1 (single isomer, unassigned)
Lab note: check whether P or Q has the lower measured pIC50. Kindly give the label for the entry you pick.
P
